apparent KD of K4 kissing-loop reporter values by entry
- System: K4 kissing-loop RNA reporter
- Assay Overview: apparent KD of K4 kissing-loop reporter; higher = weaker reporter binding
- Experimental Conditions: Eterna round: R107; input ligand: tryptophan 2.4 mM
Provide the measurement as a number trailed by its unit.

The examples below pair each entry with its known result.
Sequence	Reported Result
UGAUACCAGACUGAUACCAGCGAGUGAUGUUCGCUGAAAUCAGGGUCAAAGACCCUGUCUCGCCCUUGGCAGCAGUCUGGUAUCU [TheoBX 20 #SwitchBubble #StaticStem]	128 nM
UUGAGACGUCAAGGAUAUUCCGCGGAAGGGCGAGCGACCCAAGUGUGAGUGAUGUUCAGCAAGCCGGAAGAAGGUGAAUUUCACC [theeternabot_sameState_KL_FMN_B_26]	937 nM
AAGGGCGAGGUAACGUGGAUAUCUCGUCGCAAGGAUAUCUGGAAACAGAGAAGGUGCGACAUCACCGGCAGUGAUGUUGCUGGGC	181 nM

## Input Query (sequence): CCGGCCCAGCCGGAUACCAGUGCGCCGCAGGGAACGGCGGGCCCAGAGUGAUGUUCGGGACACCCUUGGCAGCCGCCUGGGUCCC [#2 Same State - Theophylline B Attempt #30 (HarryS)] ; field requested: apparent KD of K4 kissing-loop reporter
## Output 435 nM

## Input // repeat for UACUUAUAUUUCAACUUAAAUUAUUCAGAAGGAGCGUGAUCAUUCACAGGUAGGUCGCUGAACUAGUGAUGUUAGUUUUAAUUUU [JR_Nu_ExcArginiA_Sub022] and report
## Output 62.2 nM

## Input // same read-out, input: UAGCGCAACCUGCUUACGUAUGAGCCGGAAGGAGCGGCAGAAUUGCCAGGUAGGUCGCCGGCCCAGUGAUGUUGGGAUGGUGUGG [Usritiis]
## Output 228 nM

====

- Test system: K4 kissing-loop RNA reporter
- Assay Overview: apparent KD of K4 kissing-loop reporter; higher = weaker reporter binding
- Experimental Conditions: Eterna round: R107; input ligand: theophylline 20 uM
Parameter: apparent KD of K4 kissing-loop reporter

Use the examples below as a reference point.
Sequence	Parameter	Reported Result
UGUACCGACUCAGGAUAUGUCGUCGAAAGACGAAAUGGAGUGAUGUUCCUUAAACUGCGAAAGCAGACAGAAGGGAGUUGGUACU [FmnBS 29 C9+G77]	apparent KD of K4 kissing-loop reporter	0.233 µM
UUUUGGUACUGAGGAUAUUCGACGAAAUAUAGUGAUGUUAUAUAAGGAGGAGGAGGGUGGGAGGAAGGAGAAGGCAGAAGAGGAG [#06 K4 FMN B Exclusion]	apparent KD of K4 kissing-loop reporter	0.285 µM
UUUUAUUCGUACUUCUAGUGAUGUUAGAUUCGAGGACCGGUACGGCCGCCACUCGUUAAGGCGAUUUUAUAUUUUUUAUUCUUUA [JR_SSTryptoA_Sub012]	apparent KD of K4 kissing-loop reporter	0.165 µM
UACUUAUAUUUCAACUUAAAUUAUUCAGAAGGAGCGUGAUCAUUCACAGGUAGGUCGCUGAACUAGUGAUGUUAGUUUUAAUUUU [JR_Nu_ExcArginiA_Sub022]	apparent KD of K4 kissing-loop reporter	0.116 µM
GUCUGCGUCUCGGCCGCCACUCACUAGUGAUGUUAGUAAGGAGCGACUAGAGAAGUCCAGUUAAUGAGGACCGGGAGAAGCUCUU [Exclusion Tryptophan B GF 3]	apparent KD of K4 kissing-loop reporter	0.106 µM

## Input Request - read-out apparent KD of K4 kissing-loop reporter | tested on K4 kissing-loop RNA reporter | sequence GGAUAGGAUAGAGGAUAUGGAGAACACAAAAGUGACUUGUUGUGUUUAUCCAUAGGGAGUGAUGUUCCAGAAGGCUGUCCUAUCG [MatMod 24 - Jieux - Exclusion - FMN B];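 further: bound reporter read as fluorescence of individual clusters on recovered sequencing chips by microscopy, with normalized cluster intensities fitted with a binding model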
## Output 0.183 µM

## Input // next record AUUACAUCUGAAAAGCUAGUGAUGUUAGCUCGAGGACCGGUACGGCCGCCACUCGCAUAGCGAGGCCAAGUCGCGGUUAACGGAG [theeternabot_exclusion_KL_Trp_A_4]
## Output 0.0891 µM

## Input Also, GCCUAGGCUCGAAAGAGCCUAGGCUUGUCUCAGGAUAUCUGGAAACAGAGAAGGGAGCUACUAGUGAUGUUAGGAAUUCCCUAAG please.
## Output 0.0923 µM

## Input # iterate: GCAGGCGUAAAAGGAUAUCAGGCUCUCUAGACACGAGUGAUGUUUGUGUAGGUAACGUAAUAGGCAUGAGAAGGUUUCACUUAAA [theeternabot_sameState_KL_FMN_B_49]
## Output 0.524 µM

## Input What do you get for AAAAGCAGAAAGACGCAUUAAAGAACCGAAGGAGCGCGGAAUUACGCAGGUAGGUCGCGGGAUAAGCGAGUGAUGUUCGCGAAAG [Arginine A Same State; Euphoria Solution] ?
## Output 0.0895 µM

## Input Entry UGAUACCAGACUGAUACCAGCCAGUGAUGUUGGCUAAGCCAAAUAGGUGUCAAAGACACCGGCCCUUGGCAGCAGUCUGGUAUCU [TheoBX 2 #SwitchBubble #StaticStem] please
## Output 0.136 µM

## Input Thanks! And AAAUCUUUCAGAAGGAGCGUGGAUUAUUCUUAUAUAUUUAUUACGAGUGAUGUUCGUAAUUCACAGGUAGGUCGCUGAUCAAUAA [JR_ExcArginiB_Sub006] ?
## Output 0.109 µM

## Input Could you do the same for CCGGCCCAGCCGGAUACCAGUGCGCCGCAGGGAACGGCGGGCCCAGAGUGAUGUUCGGGACACCCUUGGCAGCCGCCUGGGUCCC [#2 Same State - Theophylline B Attempt #30 (HarryS)] , please?
## Output 0.355 µM

## Input Same read-out for GCGUGGCAGGCGGCCGCCACUCGGACGAGUCACAGUGAUGUUGUGGUUUGCCAGUCGUCUUCAUCGAGGACCGGGUUUGUUGCGC [Exclusion Tryptophan B GF 18] ?
## Output 0.159 µM

## Input Same read-out for UGACUGGACUGAAGGAGCGCUGAAGGAGCGUAAGCAGUGAUGUUGCUUACAGGUAGGUCGCAGCAGGUAGGUCGCAGUCUAGUCU ?
## Output 0.09 µM

## Input # repeat for GAUGCCAUGAUCCUCCUGGUAUCGGGAGAUACCAGCGUGCUGACACGCCCUUGGCAGCUCCAUUCGAGAGUGAUGUUGUCGAGAA [KL-SSTheo-A8 #analogue]
## Output 0.237 µM

## Input Proceed to AAUAAAAGAUGUUUAGGAAAGAAAAUGGAAGGAGCGUGCGAAAGCACAGGUAGGUCGCCAGUGAUGUUGGAACCUGAGCAUCAAA [#SwitchBubble 15 #K4Late]
## Output 0.677 µM

## Input Entry AUUAAUUUCAGAGGAUAUCGUUAUUUUUUUAAGUAUAAUCUAUUAUGCAGUGAUGUUGCUAUUAAUCGAGAAGGCUGAUUUAUAA [JR_ExcFMNB_Sub001] please
## Output 0.134 µM

## Input Try the sequence GCUAUGGUUGGAAGGAGCGUUGAAUUGUUGGUAAGAGUGAUGUUCGAUAGUGGAUAGUUGUAGCAGGUAGGUCGCCAACUAUAGC [KL-Arg B27]
## Output 0.517 µM

## Input What about GGCCGCAAGGCGAGCGCUCCCACUCCGGAAGGAGCGCCCGGAAGGGCAGGUAGGUCGCCGGAGUGAUGUUCCGGUGGAGGGCUCG [#2 Exclusion - Arginine A Attempt #18 (Inspired by Omei)] ?
## Output 0.772 µM

## Input Cool, now AUUAUAUAGGCGGCCGCCACUAGUGAUGUUAGUGAUGUCAUAAUAUAAUGAUAAAUUAUAUUGCGUAGGACCGGGCCUAAAUAUU [#15 K4 Tryptophan B Exclusion]
## Output 0.1 µM

## Input Could you do the same for UCUCAUCUCAGAAGGAGCGUGAGAGAAUAUUAGAAAUCGUCGAGUGAUGUUCGACGUCUCUCACAGGUAGGUCGCUGAGACGUCA [Arg B SS t9] , please?
## Output 0.121 µM

====

apparent KD of MS2 coat protein by entry:
- Test system: MS2 coat protein
- Assay Overview: apparent KD of MS2 coat protein; designed switch direction (-1 OFF switch, 1 ON switch): -1; higher = weaker reporter binding
- Experimental Conditions: input ligand: FMN 200 uM

## Input Hi! What's the reported apparent KD of MS2 coat protein for GCAGCUAGUUCAGGAUAUCAGCACGUGUAGUGCUGAGAAGGGAACAUGAGGAUCACCCAUGUGAUCAAUGCUGCAAUUUUAAUU [ENG1/12-A3] (Eterna round: R96, puzzle: Exclusion NG 1) on MS2 coat protein?
## Output 780 nM

## Input Likewise for UUCAUGUGAGGAUAUUAGUAGUAAAUAAAUAAAAUUAUUACUGAGAAGGUACAUGAGGAUCACCCAUGUUCCUU [Salish 062 v22] (Eterna round: R97, puzzle: Exclusion 4) ?
## Output 18.5 nM

## Input Note, next up: GAUUGAGAGCAGGAUAUAUUCCUGAUGUAUGAAGUAGAAGGGCUCACAUGAGGAUCACCCAUGUGAUCCUGAAU [JL Dibri mod 17 mod] (Eterna round: R97, puzzle: Exclusion 6)
## Output 15.3 nM

## Input Input ACAUUACAUGAGGAUCACCCAUGUGAGGAUAUGGAGCGAUAGUGUCCUGUCGCGUACACCAGAAGGCGCGGGUG [1st #49] (Eterna round: R97, puzzle: Exclusion 1)
## Output 242 nM

## Input Now consider AAGACGCGUGUAAGGAUAUCGAAAGCCCGAGGCGACGAGAAGGUACAUGAGGAUCACCCAUGUGCAGAUCACAA [BmEX4 B.3] (Eterna round: R97, puzzle: Brourd's mod of Exclusion 4) and answer again.
## Output 18.9 nM

## Input Moving on to the next sequence: AAUGUUUGAUUCCACUUAUACAUGAGGAUCACCCAUGUUAUCGAGGAUAUGCAUUAGAGUGUUUAGCAGAAGGCGAUGUAAUUG [JR_ExcNG3_Sub034] (Eterna round: R96, puzzle: Exclusion NG 3)
## Output 90.2 nM

## Input Quick one: GUAAAAUAAGCUUAUUUACACAUGAGGAUCACCCAUGUAUUGGACGGACUCCUGACCUCAAUUAUAUGCUCGUAUCG [Eternabot (L1) Solution 41] (Eterna round: R97, puzzle: Sensor, turn-off variant 1)
## Output 77.6 nM

## Input Param item: UCAGGCGAUGUCAGGAUAUCGGCUGCCCAAUUGGCUGAGAAGGGACAUGAGGAUCACCCAUGUUAGAUCCAGCC [BmEX4 A.25] (Eterna round: R97, puzzle: Brourd's mod of Exclusion 4)
## Output 30.2 nM

## Input // next record GCAGUAUGAGUUAGGAUAUGAUGAUUUAAAAUAAAUCAGAAGGAACUUGAGGAUCACCCAAGUAAAGAAUUGGU [JR_BMEx4_Sub071] (Eterna round: R97, puzzle: Brourd's mod of Exclusion 4)
## Output 25.3 nM

## Input Same for GUUGUUUAUGUAGGAUAUGCAAGGCGAGCCUAAGCAGAAGGACAUGAGGAUCACCCAUGUAUUGCGGUCUGCGUUCAGAUCGCU [salish99_ExNG1_r4_015] (Eterna round: R96, puzzle: Exclusion NG 1)
## Output 164 nM

## Input Now consider GUUUCACAUGAGGAUCACCCAUGUGAGGAUAUAGAUUUGUUAGUCGUAAUUGAUAGAUUUAGAAGGCGCGUGAU [JR_Exc1_Sub002] (Eterna round: R97, puzzle: Exclusion 1) and answer again.
## Output 27.4 nM

## Input Also, AGCUGGAGAGGAUAUACGUAGGAAAAAAAAGUCUGAUCACUACAUGAGGAUCACCCAUGUAGAAGGCUCUGGCA [Ex2 Design 162: Sub-opt 26] (Eterna round: R96, puzzle: Exclusion 2) please.
## Output 104 nM

## Input Can you check AAUAUACAUGUAGGAUAUCUGCACGAUUAGUGCAGAGAAGGACAUGAGGAUCACCCAUGUAAUUAAGAUCAAUUAUUAAAUAUU [ENG1/3-B1] (Eterna round: R96, puzzle: Exclusion NG 1) next?
## Output 327 nM

## Input Entry to check: UUUAAGGGAAUUAAGAUCACAUGAGGAUCACCCAUGUAUAUAUAGGAUAUCAGCUCGAUUAGAGCUGAGAAGGAUAUAUACAUA [ExNG3/6-A1] (Eterna round: R96, puzzle: Exclusion NG 3)
## Output 126 nM

## Input How about CUGUACUGAGGAUAUACAUGAGGAUCACCCAUGUGAUCUAGUGCACGCGUACGUGUACGUAGAAGGCAGUACAG [Mat - Exclusion 3 - Eli Mod - D38] (Eterna round: R97, puzzle: Exclusion 3) ?
## Output 792 nM

## Input Try ACAGAGCAAGGAUAUGCCGGGCGUGACAUGAGGAUCACCCAUGUGAUGCCGGUACGUUUAGCAGAAGGUGCAGGCA [EX5 C.2] (Eterna round: R97, puzzle: Exclusion 5) next.
## Output 19 nM

## Input Also need CGCUAUAGAGGAUAUACGAGAUCGAAAGAUCGGCGAUCCCUACAUGAGGAUCACCCAUGUAGAAGGCUAUAGCG [Mod 18 - Jieux - Exclusion 2] (Eterna round: R97, puzzle: Exclusion 2) , thanks.
## Output 83.3 nM

## Input Ok, now CGGCGACAUGAGGAUCACCCAUGUGAGGAUAUGACGGGAAAAGCGUGAGCGGUUUGUGUCAGAAGGCGCGUAGG [salish99_ex1_r4_084] (Eterna round: R97, puzzle: Exclusion 1)
## Output 20.8 nM
